molecular target: Histone-lysine N-methyltransferase 2A/WDR5 (Homo sapiens, UniProt P61964); test: Inhibition of MLL1-WDR5 (unknown origin) protein-protein interaction using Thr-FAM as probe by fluorescence polarization competition assay
pIC50: −log10 of the molar value.
Provide the reported pIC50 of each item.

State measured pIC50 of the compound CN1CCN(c2ccc([N+](=O)[O-])cc2Nc2cc(N3CCC3)ncn2)CC1 with Histone-lysine N-methyltransferase 2A/WDR5 (Homo sapiens, UniProt P61964). < 4.30

State measured pIC50 of the compound CN1CCN(c2ccc([N+](=O)[O-])cc2Nc2ncnc(Cl)c2[N+](=O)[O-])CC1 with Histone-lysine N-methyltransferase 2A/WDR5 (Homo sapiens, UniProt P61964). < 4.30

State measured pIC50 of the compound Nc1c(Cl)ncnc1Nc1cc([N+](=O)[O-])ccc1N1CCOCC1 with Histone-lysine N-methyltransferase 2A/WDR5 (Homo sapiens, UniProt P61964). < 4.30

----------
target: Histone-lysine N-methyltransferase 2A/WDR5 (Homo sapiens); experiment: Inhibition of MLL1-WDR5 (unknown origin) protein-protein interaction using Thr-FAM as probe by fluorescence polarization competition assay
pIC50: −log10 of the molar value.
Provide the reported pIC50 of each item.

Find the measured pIC50 of Nc1c(Cl)ncnc1Nc1cc([N+](=O)[O-])ccc1N1CCN(c2ccccc2)CC1 and report it. < 4.30

Find the measured pIC50 of CN1CCN(c2ccc([N+](=O)[O-])cc2Nc2cc(N(C)C)ncn2)CC1 and report it. < 4.30

Find the measured pIC50 of CN1CCN(c2ccc([N+](=O)[O-])cc2Nc2ncncc2N)CC1 and report it. < 4.30

----------
target: Histone-lysine N-methyltransferase 2A/WDR5 (Homo sapiens, UniProt P61964); experiment: Inhibition of MLL1-WDR5 (unknown origin) protein-protein interaction using Thr-FAM as probe by fluorescence polarization competition assay
MEASURED_ENDPOINT: IC50

Find the measured IC50 of CN1CCN(c2ccc([N+](=O)[O-])cc2Nc2nccc(N)n2)CC1 and report it. > 50 µM

Find the measured IC50 of Nc1c(Cl)ncnc1Nc1cc([N+](=O)[O-])ccc1N1CCN(C2CC2)CC1 and report it. > 50 µM

Find the measured IC50 of CN1CCN(c2ccc([N+](=O)[O-])cc2Nc2cc(N3CCCC3)ncn2)CC1 and report it. > 50 µM

----------
biological target: Histone-lysine N-methyltransferase 2A/WDR5 (Homo sapiens); assay: Inhibition of MLL1-WDR5 (unknown origin) protein-protein interaction using Thr-FAM as probe by fluorescence polarization competition assay
pIC50: −log10 of the molar value.
MEASURED_ENDPOINT: pIC50

State measured pIC50 of the compound Cc1c(Cl)ncnc1Nc1cc([N+](=O)[O-])ccc1N1CCN(C)CC1 with Histone-lysine N-methyltransferase 2A/WDR5 (Homo sapiens). < 4.30

State measured pIC50 of the compound CN1CCN(c2ccc([N+](=O)[O-])cc2Nc2ncccn2)CC1 with Histone-lysine N-methyltransferase 2A/WDR5 (Homo sapiens). < 4.30

State measured pIC50 of the compound Cc1nc(Cl)cc(Nc2cc([N+](=O)[O-])ccc2N2CCN(C)CC2)n1 with Histone-lysine N-methyltransferase 2A/WDR5 (Homo sapiens). < 4.30
